Target: Tyrosine-protein kinase Fyn (Homo sapiens);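 further: enzymatic inhibition of Fyn kinase activity measured with Poly(Glu:Tyr) as the phosphorylation substrate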
Sequence (P06241 whole entry): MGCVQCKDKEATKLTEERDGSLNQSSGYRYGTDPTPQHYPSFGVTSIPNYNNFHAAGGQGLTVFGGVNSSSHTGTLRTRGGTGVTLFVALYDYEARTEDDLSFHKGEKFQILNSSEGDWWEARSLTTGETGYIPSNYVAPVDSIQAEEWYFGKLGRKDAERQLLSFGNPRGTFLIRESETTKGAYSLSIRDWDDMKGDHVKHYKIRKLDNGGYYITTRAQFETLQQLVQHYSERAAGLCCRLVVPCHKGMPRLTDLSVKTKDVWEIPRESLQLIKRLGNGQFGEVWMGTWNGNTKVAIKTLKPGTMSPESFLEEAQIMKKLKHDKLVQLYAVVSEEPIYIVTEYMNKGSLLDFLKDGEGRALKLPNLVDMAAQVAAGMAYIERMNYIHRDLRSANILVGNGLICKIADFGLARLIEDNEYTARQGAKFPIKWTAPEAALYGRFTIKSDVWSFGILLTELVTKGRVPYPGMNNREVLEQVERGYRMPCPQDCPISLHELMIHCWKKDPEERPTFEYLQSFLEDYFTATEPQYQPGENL
Test: biochemical
Format: cell-based, Insect cells
Settings: read-out: IC50
Mark 1 only when IC50 stays strictly below 5 µM. Values equal to the cut-off are 0.

[[record]]
molecule = "O=C(c1ccc(OCCN2CCCCC2)cc1)c1c(-c2ccc(O)cc2)sc2cc(O)ccc12"
class_name = 1

[[record]]
molecule = "CC/C(=C(/CC)c1ccc(O)cc1)c1ccc(O)cc1"
class_name = 0

[[record]]
molecule = "CN(C)c1ccc(C(=C2C=CC(=[N+](C)C)C=C2)c2ccc(N(C)C)cc2)cc1.[Cl-]"
class_name = 1

[[record]]
molecule = "C[C@]12CC[C@@H]3c4ccc(OC(=O)c5ccccc5)cc4CC[C@H]3[C@@H]1CC[C@@H]2O [ESTRADIOL BENZOATE]"
class_name = 0

[[record]]
molecule = "CC(C)(C)c1ccc(C(O)CCCN2CCC(C(O)(c3ccccc3)c3ccccc3)CC2)cc1 (configuration not stated)"
class_name = 0

[[record]]
molecule = "[Cl-].[Cl-].[Zn+2] [ZINC CHLORIDE]"
class_name = 1

[[record]]
molecule = "COc1cccc2c1C(=O)c1c(O)c3c(c(O)c1C2=O)C[C@@](O)(C(=O)CO)C[C@@H]3O[C@H]1C[C@H](N)[C@@H](O)[C@H](C)O1 [EPIRUBICIN]"
class_name = 0


Ref: ChEMBL document CHEMBL1909046
